Target: T1, cSNK:BSA conjugate (bovine, head-to-tail cyclized; conjugated to BSA carrier)
T1 construct: also called BSA-cSNK
T1 sequence (P02769 25-607 limits assumed): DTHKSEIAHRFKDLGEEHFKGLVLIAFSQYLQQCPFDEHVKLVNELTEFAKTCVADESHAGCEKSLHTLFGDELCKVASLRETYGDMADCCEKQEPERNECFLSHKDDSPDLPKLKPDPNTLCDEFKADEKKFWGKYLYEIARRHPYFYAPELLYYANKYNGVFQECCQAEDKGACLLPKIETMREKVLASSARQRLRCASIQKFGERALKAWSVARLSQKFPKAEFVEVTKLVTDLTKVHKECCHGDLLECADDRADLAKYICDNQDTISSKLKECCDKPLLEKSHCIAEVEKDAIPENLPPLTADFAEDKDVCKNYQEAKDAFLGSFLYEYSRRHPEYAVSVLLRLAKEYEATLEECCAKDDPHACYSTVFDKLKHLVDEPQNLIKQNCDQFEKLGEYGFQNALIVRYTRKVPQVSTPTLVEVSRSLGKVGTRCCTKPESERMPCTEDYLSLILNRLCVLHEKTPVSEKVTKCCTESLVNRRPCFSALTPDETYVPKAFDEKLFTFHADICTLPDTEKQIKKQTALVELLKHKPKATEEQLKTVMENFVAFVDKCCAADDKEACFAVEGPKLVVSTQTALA
Assay: BLI 2:1 fit, site 1; 3.13 nM row
metric: koff (s⁻¹)
Note: unit s⁻¹ is implicit; provide only the numeric part.

Exam item: Could you please provide reported koff for hu5E3-IgG2 (antibody, V domains shown, human IgG2/kappa; also called humanized 5E3 IgG2) VH: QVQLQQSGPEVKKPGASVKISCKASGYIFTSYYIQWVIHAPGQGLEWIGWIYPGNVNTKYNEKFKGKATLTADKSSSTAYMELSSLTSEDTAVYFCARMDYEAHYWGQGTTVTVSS VL: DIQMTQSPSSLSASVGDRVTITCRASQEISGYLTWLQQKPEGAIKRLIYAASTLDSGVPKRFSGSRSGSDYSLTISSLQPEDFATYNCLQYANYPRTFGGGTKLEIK ? Thanks!
Marked response: 0.000762

The origin of these recorded values is patent US20170008955A1.
